The values you see were collected from ChEMBL document CHEMBL3885861.

Provide the recorded Hb for the entries that follow.
# Species on record: Rattus norvegicus
# assayProcedure: Open TG-GATES - Regimen: Single
# Format: toxicity, organism-based, Sprague-Dawley
# Parameters: regimen Single, gender Male, age 6 weeks
# measurementContext: in vivo, po, 0 mg/kg, 9 h, tissue Blood, route gavage, dose level Control
One number for each entry, in g/dL.

CNC(=C[N+](=O)[O-])NCCSCc1ccc(CN(C)C)o1: 13.6
O=C(OC[C@H]1O[C@@H](OC(=O)c2cc(O)c(O)c(OC(=O)c3cc(O)c(O)c(O)c3)c2)[C@H](OC(=O)c2cc(O)c(O)c(OC(=O)c3cc(O)c(O)c(O)c3)c2)[C@@H](OC(=O)c2cc(O)c(O)c(OC(=O)c3cc(O)c(O)c(O)c3)c2)[C@@H]1OC(=O)c1cc(O)c(O)c(OC(=O)c2cc(O)c(O)c(O)c2)c1)c1cc(O)c(O)c(OC(=O)c2cc(O)c(O)c(O)c2)c1: 12.9

I'm hoping you can list Hb for every molecule here, please.
1. CCCc1cc(=O)[nH]c(=S)[nH]1
2. Cc1nnc2n1-c1ccc(Cl)cc1C(c1ccccc1Cl)=NC2

13.1
13.2

* * *

# Species: Rattus norvegicus
# assayProcedure: Open TG-GATES - Regimen: Daily Repeat
# Format: toxicity, organism-based, Sprague-Dawley
# Parameters: regimen Daily Repeat, gender Male, age 6 weeks
# measurementContext: in vivo, po, 1000 mg/kg, […], tissue Blood, route gavage, dose level High, time 28 day
recordedEndpoint: WBC (x10_2/uL)
Numbers only, in x10_2/uL.

Would you please look over these solved cases?
O=C(OC[C@H]1O[C@@H](OC(=O)c2cc(O)c(O)c(OC(=O)c3cc(O)c(O)c(O)c3)c2)[C@H](OC(=O)c2cc(O)c(O)c(OC(=O)c3cc(O)c(O)c(O)c3)c2)[C@@H](OC(=O)c2cc(O)c(O)c(OC(=O)c3cc(O)c(O)c(O)c3)c2)[C@@H]1OC(=O)c1cc(O)c(O)c(OC(=O)c2cc(O)c(O)c(O)c2)c1)c1cc(O)c(O)c(OC(=O)c2cc(O)c(O)c(O)c2)c1: 130.6
CCOc1ccc(NC(C)=O)cc1: 134.5
Cc1nnc2n1-c1ccc(Cl)cc1C(c1ccccc1Cl)=NC2: 103.3
COC(=O)C1=C(C)NC(C)=C(C(=O)OC)C1c1ccccc1[N+](=O)[O-]: 97.2
CNC(=C[N+](=O)[O-])NCCSCc1ccc(CN(C)C)o1: 104.7

--- query ---
Sample `CN/C(=N/CCSCc1nc[nH]c1C)NC#N` ; WBC observed: 177.7

* * *

Provide the recorded Plat for the entries that follow.
# Species: Rattus norvegicus
# assayProcedure: Open TG-GATES - Regimen: Single
# Assay type: toxicity, organism-based, Sprague-Dawley
# Design: regimen Single, gender Male, age 6 weeks
# measurementContext: in vivo, po, 0 mg/kg, 3 h, tissue Blood, route gavage, dose level Control
Give bare numbers, in x10_4/uL.

CCOc1ccc(NC(C)=O)cc1 [PHENACETIN]: 114.8
Cc1nnc2n1-c1ccc(Cl)cc1C(c1ccccc1Cl)=NC2 [TRIAZOLAM]: 126
COC(=O)C1=C(C)NC(C)=C(C(=O)OC)C1c1ccccc1[N+](=O)[O-] [NIFEDIPINE]: 120

I'm hoping you can list Plat for every molecule here, please.
1. CCCc1cc(=O)[nH]c(=S)[nH]1 [PROPYLTHIOURACIL]
2. CNC(=C[N+](=O)[O-])NCCSCc1ccc(CN(C)C)o1 [RANITIDINE]

[108.3, 114.3]
